Reference source for all entries: ChEMBL document CHEMBL1123302

system-name: Substance-P receptor (Cavia porcellus) (UniProt P30547)
Sequence (P30547 whole entry): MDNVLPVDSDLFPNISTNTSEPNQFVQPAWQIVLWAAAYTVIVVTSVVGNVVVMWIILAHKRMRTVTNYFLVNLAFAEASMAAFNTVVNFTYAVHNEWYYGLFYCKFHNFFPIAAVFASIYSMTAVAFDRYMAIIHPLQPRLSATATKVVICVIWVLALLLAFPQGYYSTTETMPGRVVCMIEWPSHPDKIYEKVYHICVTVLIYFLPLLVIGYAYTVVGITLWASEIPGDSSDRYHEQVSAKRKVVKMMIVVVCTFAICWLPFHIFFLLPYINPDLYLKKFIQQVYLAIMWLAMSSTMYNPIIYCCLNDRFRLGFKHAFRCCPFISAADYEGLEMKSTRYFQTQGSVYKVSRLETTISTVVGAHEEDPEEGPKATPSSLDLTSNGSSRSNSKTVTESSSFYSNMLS
assay-remarks: In vitro inhibition of substance P (6-11) hexapeptide induced contractions of the guinea pig ileum at 10 uM.
Format: tissue-based
Listing of entries alongside the reported Activity.
Reply numerically in dose ratio, unit not repeated.

INSERT INTO measurements (compound, system_name, parameter_measured, measure_unit, data_value) VALUES
  ('COC(=O)[C@@H](CCSC)NC(=O)[C@@H](CC(C)C)NC(=O)CNC(=O)[C@@H](Cc1c[nH]c2ccccc12)NC(=O)[C@@H](Cc1c[nH]c2ccccc12)NC(=O)[C@H](CCC(N)=O)NC(=O)[C@H](CCC(N)=O)NC(=O)[C@@H]1CCCN1C(=O)[C@H](CCCCNC(=O)OCc1ccccc1)NC(=O)[C@@H]1CCCN1C(=O)[C@H](CCCN=C(N)N)NC(=O)OCc1ccccc1', 'Substance-P receptor (Cavia porcellus) (UniProt P30547)', 'Activity', 'dose ratio', 37);

Prompt: Can you share its Activity? I mean this compound: COC(=O)C(CCSC)NC(=O)[C@H](CC(C)C)SCCNC(=O)[C@@H](Cc1ccccc1)NC(=O)[C@@H](Cc1ccccc1)NC(=O)[C@H](CCC(N)=O)NC(=O)[C@H](CCC(N)=O)NC(=O)[C@H]1CCCN1C(=O)[C@H](CCCCN)NC(=O)[C@H]1CCCN1C(=O)[C@@H](N)CCCN=C(N)N (stereo in doubt)
Completion: 3.4

###

system-name: Substance-P receptor (Cavia porcellus) (UniProt P30547)
assay-remarks: In vitro inhibition of substance P (6-11) hexapeptide induced contractions of the guinea pig ileum at 5 uM.
Type: tissue-based
parameter-measured: Activity (dose ratio)
Reply numerically in dose ratio, unit not repeated.

INSERT INTO measurements (molecule, parameter_measured, data_value) VALUES
  ('COC(=O)[C@@H](CCSC)NC(=O)[C@@H](CC(C)C)NC(=O)CNC(=O)[C@@H](Cc1c[nH]c2ccccc12)NC(=O)[C@@H](Cc1c[nH]c2ccccc12)NC(=O)[C@H](CCC(N)=O)NC(=O)[C@H](CCC(N)=O)NC(=O)[C@@H]1CCCN1C(=O)[C@H](CCCCNC(=O)OCc1ccccc1)NC(=O)[C@@H]1CCCN1C(=O)[C@H](CCCN=C(N)N)NC(=O)OCc1ccccc1', 'Activity', 34);

Prompt: Can you share its Activity? I mean this molecule: COC(=O)[C@@H](CCSC)NC(=O)C(CC(C)C)NC(=O)[C@@H](Cc1c[nH]c2ccccc12)NC(=O)[C@H](Cc1c[nH]c2ccccc12)NC(=O)[C@@H](Cc1c[nH]c2ccccc12)NC(=O)[C@H](CCC(N)=O)NC(=O)[C@H](CCC(N)=O)NC(=O)[C@@H]1CCCN1C(=O)[C@H](CCCCNC(=O)OCc1ccccc1)NC(=O)[C@@H]1CCCN1C(=O)[C@H](CCCN=C(N)N)NC(=O)OCc1ccccc1 (stereo in doubt)
Completion: 7.2

###

system-name: Substance-P receptor (Cavia porcellus) (UniProt P30547)
assay-remarks: In vitro inhibition of substance P induced contractions of the guinea pig ileum at 5 uM.
Assay type: tissue-based
Listing of entries alongside the reported Activity.
Reply numerically in dose ratio, unit not repeated.

INSERT INTO measurements (molecule, parameter_measured, data_value) VALUES
  ('COC(=O)[C@@H](CCSC)NC(=O)[C@@H](CC(C)C)NC(=O)CNC(=O)[C@@H](Cc1c[nH]c2ccccc12)NC(=O)[C@@H](Cc1c[nH]c2ccccc12)NC(=O)[C@H](CCC(N)=O)NC(=O)[C@H](CCC(N)=O)NC(=O)[C@@H]1CCCN1C(=O)[C@H](CCCCNC(=O)OCc1ccccc1)NC(=O)[C@@H]1CCCN1C(=O)[C@H](CCCN=C(N)N)NC(=O)OCc1ccccc1', 'Activity', 15);

Prompt: Can you share its Activity? I mean this molecule: COC(=O)C(CCSC)NC(=O)[C@H](CC(C)C)SCCNC(=O)[C@@H](Cc1ccccc1)NC(=O)[C@@H](Cc1ccccc1)NC(=O)[C@H](CCC(N)=O)NC(=O)[C@H](CCC(N)=O)NC(=O)[C@H]1CCCN1C(=O)[C@H](CCCCN)NC(=O)[C@H]1CCCN1C(=O)[C@@H](N)CCCN=C(N)N (stereo in doubt)
Completion: 2.7

Prompt: Quick one: COC(=O)[C@H](CCSC)NC(=O)[C@H](CC(C)C)NC(=O)[C@@H](Cc1c[nH]c2ccccc12)NC(=O)[C@H](Cc1ccccc1)NC(=O)[C@@H](Cc1ccccc1)NC(=O)[C@H](CCCN=C(N)N)NC(=O)[C@H](CC(N)=O)NC(=O)OC(C)(C)C
Completion: 2.1

Prompt: Quick one: COC(=O)[C@H](CCSC)NC(=O)[C@H](CC(C)C)NC(=O)[C@@H](Cc1c[nH]c2ccccc12)NC(=O)[C@H](Cc1ccccc1)NC(=O)[C@@H](Cc1ccccc1)NC(=O)[C@H](CCCN=C(N)N)NC(=O)[C@H](CC(N)=O)NC(=O)C1CCCN1C(=O)[C@H](CCCCNC(=O)OCc1ccccc1)NC(=O)C1CCCN1C(=O)[C@H](CCCN=C(N)N)NC(=O)OCc1ccccc1 (stereo in doubt)
Completion: 14
